Test system: Staphylococcus epidermidis CCM 4418 (ATCC 12228)
PROCEDURE SUMMARY: Antibacterial microdilution broth (EUCAST)
Assay type: cell-based
EXPERIMENTAL CONDITIONS: Staphylococcus epidermidis; 24h incubation; read-out: MIC SE
MEASURE: MIC (µM)
Respond with the bare value in µM.

Please review the following examples before continuing.
>  <MOLECULE>
O=C(Nc1ncco1)c1cccnc1

>  <MIC [µM]>
500

$$$$
>  <MOLECULE>
O=C(Nc1ncco1)c1ccccn1

>  <MIC [µM]>
125

$$$$
>  <MOLECULE>
O=C(Nc1ncco1)c1ccnc(Cl)c1

>  <MIC [µM]>
62.5

$$$$
>  <MOLECULE>
O=C(Nc1nc(-c2ccccc2)co1)c1ccccn1 [Compound 11b]

>  <MIC [µM]>
125

$$$$

query: Find the recorded MIC belonging to O=C(Nc1ncco1)c1cnc2ccccc2n1 [Compound 10b] and report it.
result: 500
